- measurement_target: T1, recombinant human M-CSF (human, UniProt P09603 33-190, limits assumed)
- T1 construct: The active form is described as a disulfide bonded dimer; also called M-SCF; CSF-1
- T1 sequence: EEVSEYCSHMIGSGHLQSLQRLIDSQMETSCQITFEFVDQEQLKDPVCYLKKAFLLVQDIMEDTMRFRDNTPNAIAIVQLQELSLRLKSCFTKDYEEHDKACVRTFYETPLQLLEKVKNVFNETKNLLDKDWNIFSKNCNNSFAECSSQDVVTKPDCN
- test_description: SPR (Biacore), M-CSF amine-coupled on CM5 chip, antibody flowed, 25 C, 1:1 model
Documented koff across a set of binders

{"binder": "heRX1-2.G2 (antibody, V domains shown, not shown: human Gamma-2 heavy chain constant region; human Kappa light chain constant region (the printed V regions end in EIKRT, which may overlap its start)) VH: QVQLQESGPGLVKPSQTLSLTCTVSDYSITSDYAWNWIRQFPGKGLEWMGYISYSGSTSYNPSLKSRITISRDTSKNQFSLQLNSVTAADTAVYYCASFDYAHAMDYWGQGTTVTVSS VL: EIVLTQSPGTLSVSPGERVTFSCRASQSIGTSIHWYQQKTGQSPRLLIKYASERISGIPDRFSGSGSGTDFTLTISRVESEDFADYYCQQINSWPTTFGQGTKLEIKR", "koff (s⁻¹)": 0.00165}
{"binder": "heRX1-5.G2 (antibody, V domains shown, not shown: human Gamma-2 heavy chain constant region; human Kappa light chain constant region (the printed V regions end in EIKRT, which may overlap its start)) VH: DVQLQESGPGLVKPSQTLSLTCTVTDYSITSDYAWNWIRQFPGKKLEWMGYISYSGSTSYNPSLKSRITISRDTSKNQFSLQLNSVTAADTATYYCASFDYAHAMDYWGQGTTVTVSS VL: EIVLTQSPGTLSVSPGERVTFSCRASQSIGTSIHWYQQKTGQSPRLLIKYASESISGIPDRFSGSGSGTDFTLTISRVESEDFADYYCQQINSWPTTFGQGTKLEIKR", "koff (s⁻¹)": 0.00129}
{"binder": "heRX1-7.G2 (antibody, V domains shown, copies: 2 + 2) VH: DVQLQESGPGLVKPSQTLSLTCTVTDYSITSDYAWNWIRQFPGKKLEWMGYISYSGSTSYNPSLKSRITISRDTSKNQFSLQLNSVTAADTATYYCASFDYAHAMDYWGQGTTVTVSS VL: EIVLTQSPGTLSVSPGERVTFSCRASQSIGTSIHWYQQKTGQAPRLLIKYASESISGIPDRFSGSGSGTDFTLTISRVESEDFADYYCQQINSWPTTFGQGTKLEIK", "koff (s⁻¹)": 0.00149}
{"binder": "heRX1-9.G2 (antibody, V domains shown, not shown: human Gamma-2 heavy chain constant region; human Kappa light chain constant region (the V region entry may overlap its start)) VH: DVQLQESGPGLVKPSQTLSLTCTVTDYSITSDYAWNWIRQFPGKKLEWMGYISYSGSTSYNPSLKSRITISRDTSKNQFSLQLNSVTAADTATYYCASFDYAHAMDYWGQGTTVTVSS VL: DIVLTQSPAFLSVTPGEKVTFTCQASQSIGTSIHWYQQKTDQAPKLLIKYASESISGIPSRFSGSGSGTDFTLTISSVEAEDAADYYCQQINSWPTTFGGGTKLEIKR", "koff (s⁻¹)": 0.00144}
